# Test system: Enterobacter cloacae
# assay-details: Antibacterial activity against polymyxin-susceptible Enterobacter cloacae FADD1-EC001 clinical isolates assessed as reduction in bacterial growth by broth microdilution method
# Assay type: functional
Bridge positions count the residues as written; N and C are the ends. Square brackets hold non-standard residues; d marks the D form. Peptide text beside a SMILES is read from it. * marks the point of attachment. X1 = CC[C@H](C)CCCCC(=O)*; Dab = NCC[C@H](N)C(=O)O
In this section, each of the molecules is paired with its reported MIC.

# molecule, MIC
measured = [
    ("C/C=C1/NC(=O)[C@H](CCN)NC(=O)[C@H](CCN)NC(=O)[C@H](CC(C)C)NC(=O)[C@@H](Cc2ccccc2)NC(=O)[C@H](CCN)NC(=O)[C@@H](NC(=O)[C@H](CCN)NC(=O)[C@@H](NC(=O)[C@H](CCN)NC(=O)CCCC[C@@H](C)CC)[C@@H](C)O)CCNC1=O", "> 32 µg/mL"),
    ("CC[C@H](C)CCCCC(=O)N[C@@H](CCN)C(=O)N[C@H](C(=O)N[C@@H](CCN)C(=O)N[C@H]1CCNC(=O)[C@H](CC(C)C)NC(=O)[C@H](CCN)NC(=O)[C@H](CCN)NC(=O)[C@H](CC(C)C)NC(=O)[C@@H](Cc2ccccc2)NC(=O)[C@H](CCN)NC1=O)[C@@H](C)O (X1-[Dab]T[Dab][Dab][Dab][dF]L[Dab][Dab]L; lactam 4-C)", "2 µg/mL"),
    ("CC[C@H](C)CCCCC(=O)N[C@@H](CCN)C(=O)N[C@H](C(=O)N[C@@H](CCN)C(=O)N[C@H]1CCNC(=O)CNC(=O)[C@H](CCN)NC(=O)[C@H](CCN)NC(=O)[C@H](CC(C)C)NC(=O)[C@@H](Cc2ccccc2)NC(=O)[C@H](CCN)NC1=O)[C@@H](C)O", "4 µg/mL"),
    ("CC[C@H](C)CCCCC(=O)N[C@@H](CCN)C(=O)N[C@H](C(=O)N[C@@H](CCN)C(=O)N[C@H]1CCNC(=O)[C@H](CCCN)NC(=O)[C@H](CCN)NC(=O)[C@H](CCN)NC(=O)[C@H](CC(C)C)NC(=O)[C@@H](Cc2ccccc2)NC(=O)[C@H](CCN)NC1=O)[C@@H](C)O", "32 µg/mL"),
    ("CC[C@H](C)CCCCC(=O)N[C@@H](CCN)C(=O)N[C@H](C(=O)N[C@@H](CCN)C(=O)N[C@H]1CCNC(=O)[C@H](C(C)C)NC(=O)[C@H](CCN)NC(=O)[C@H](CCN)NC(=O)[C@H](CC(C)C)NC(=O)[C@@H](Cc2ccccc2)NC(=O)[C@H](CCN)NC1=O)[C@@H](C)O", "4 µg/mL"),
    ("CC[C@H](C)CCCCC(=O)N[C@@H](CCN)C(=O)N[C@H](C(=O)N[C@@H](CCN)C(=O)N[C@H]1CCNC(=O)[C@H](Cc2ccc(O)cc2)NC(=O)[C@H](CCN)NC(=O)[C@H](CCN)NC(=O)[C@H](CC(C)C)NC(=O)[C@@H](Cc2ccccc2)NC(=O)[C@H](CCN)NC1=O)[C@@H](C)O", "16 µg/mL"),
    ("CC[C@H](C)CCCCC(=O)N[C@@H](CCN)C(=O)N[C@H](C(=O)N[C@@H](CCN)C(=O)N[C@H]1CCNC(=O)[C@H](CCO)NC(=O)[C@H](CCN)NC(=O)[C@H](CCN)NC(=O)[C@H](CC(C)C)NC(=O)[C@@H](Cc2ccccc2)NC(=O)[C@H](CCN)NC1=O)[C@@H](C)O", "8 µg/mL"),
    ("CC[C@H](C)CCCCC(=O)N[C@@H](CCN)C(=O)N[C@H](C(=O)N[C@@H](CCN)C(=O)N[C@H]1CCNC(=O)[C@H](CCCCN)NC(=O)[C@H](CCN)NC(=O)[C@H](CCN)NC(=O)[C@H](CC(C)C)NC(=O)[C@@H](Cc2ccccc2)NC(=O)[C@H](CCN)NC1=O)[C@@H](C)O", "32 µg/mL"),
    ("CC[C@H](C)CCCCC(=O)N[C@@H](CCN)C(=O)N[C@H](C(=O)N[C@@H](CCN)C(=O)N[C@H]1CCNC(=O)[C@H](COC)NC(=O)[C@H](CCN)NC(=O)[C@H](CCN)NC(=O)[C@H](CC(C)C)NC(=O)[C@@H](Cc2ccccc2)NC(=O)[C@H](CCN)NC1=O)[C@@H](C)O", "8 µg/mL"),
    ("CC[C@H](C)CCCCC(=O)N[C@@H](CCN)C(=O)N[C@H](C(=O)N[C@@H](CCN)C(=O)N[C@H]1CCNC(=O)[C@H](C(C)(C)C)NC(=O)[C@H](CCN)NC(=O)[C@H](CCN)NC(=O)[C@H](CC(C)C)NC(=O)[C@@H](Cc2ccccc2)NC(=O)[C@H](CCN)NC1=O)[C@@H](C)O", "8 µg/mL"),
    ("CC[C@H](C)CCCCC(=O)N[C@@H](CCN)C(=O)N[C@H](C(=O)N[C@@H](CCN)C(=O)N[C@H]1CCNC(=O)[C@H](C(C)(C)O)NC(=O)[C@H](CCN)NC(=O)[C@H](CCN)NC(=O)[C@H](CC(C)C)NC(=O)[C@@H](Cc2ccccc2)NC(=O)[C@H](CCN)NC1=O)[C@@H](C)O", "16 µg/mL"),
    ("CC[C@H](C)CCCCC(=O)N[C@@H](CCN)C(=O)N[C@H](C(=O)N[C@@H](CCN)C(=O)N[C@H]1CCNC(=O)[C@H]([C@@H](C)OC)NC(=O)[C@H](CCN)NC(=O)[C@H](CCN)NC(=O)[C@H](CC(C)C)NC(=O)[C@@H](Cc2ccccc2)NC(=O)[C@H](CCN)NC1=O)[C@@H](C)O", "8 µg/mL"),
    ("CC[C@H](C)CCCCC(=O)N[C@@H](CCN)C(=O)N[C@H](C(=O)N[C@@H](CCN)C(=O)N[C@H]1CCNC(=O)[C@H](CC(=O)O)NC(=O)[C@H](CCN)NC(=O)[C@H](CCN)NC(=O)[C@H](CC(C)C)NC(=O)[C@@H](Cc2ccccc2)NC(=O)[C@H](CCN)NC1=O)[C@@H](C)O", "> 32 µg/mL"),
    ("CC[C@H](C)CCCCC(=O)N[C@@H](CCN)C(=O)N[C@H](C(=O)N[C@@H](CCN)C(=O)N[C@H]1CCNC(=O)[C@H](CC)NC(=O)[C@H](CCN)NC(=O)[C@H](CCN)NC(=O)[C@H](CC(C)C)NC(=O)[C@@H](Cc2ccccc2)NC(=O)[C@H](CCN)NC1=O)[C@@H](C)O", "2 µg/mL"),
]

====

# System: Klebsiella pneumoniae
# assay-details: Antibacterial activity against Carbapenem-resistant Klebsiella pneumoniae FADD1-KP032 clinical isolates assessed as reduction in bacterial growth by broth microdilution method
# Type: functional

# cpd-smiles, MIC / µg/mL
records = [
    ("CC[C@H](C)CCCCC(=O)N[C@@H](CCN)C(=O)N[C@H](C(=O)N[C@@H](CCN)C(=O)N[C@H]1CCNC(=O)[C@H](C)NC(=O)[C@H](CCN)NC(=O)[C@H](CCN)NC(=O)[C@H](CC(C)C)NC(=O)[C@@H](Cc2ccccc2)NC(=O)[C@H](CCN)NC1=O)[C@@H](C)O", 1),
    ("CC[C@H](C)CCCCC(=O)N[C@@H](CCN)C(=O)N[C@H](C(=O)N[C@@H](CCN)C(=O)N[C@H]1CCNC(=O)[C@H](Cc2c[nH]c3ccccc23)NC(=O)[C@H](CCN)NC(=O)[C@H](CCN)NC(=O)[C@H](CC(C)C)NC(=O)[C@@H](Cc2ccccc2)NC(=O)[C@H](CCN)NC1=O)[C@@H](C)O", 4),
    ("CC[C@H](C)CCCCC(=O)N[C@@H](CCN)C(=O)N[C@H](C(=O)N[C@@H](CCN)C(=O)N[C@H]1CCNC(=O)[C@H](CCCN)NC(=O)[C@H](CCN)NC(=O)[C@H](CCN)NC(=O)[C@H](CC(C)C)NC(=O)[C@@H](Cc2ccccc2)NC(=O)[C@H](CCN)NC1=O)[C@@H](C)O", 32),
    ("CC[C@H](C)CCCCC(=O)N[C@@H](CCN)C(=O)N[C@H](C(=O)N[C@@H](CCN)C(=O)N[C@H]1CCNC(=O)[C@H](COC)NC(=O)[C@H](CCN)NC(=O)[C@H](CCN)NC(=O)[C@H](CC(C)C)NC(=O)[C@@H](Cc2ccccc2)NC(=O)[C@H](CCN)NC1=O)[C@@H](C)O", 2),
    ("CC[C@H](C)CCCCC(=O)N[C@@H](CCN)C(=O)N[C@H](C(=O)N[C@@H](CCN)C(=O)N[C@H]1CCNC(=O)[C@H](C(C)C)NC(=O)[C@H](CCN)NC(=O)[C@H](CCN)NC(=O)[C@H](CC(C)C)NC(=O)[C@@H](Cc2ccccc2)NC(=O)[C@H](CCN)NC1=O)[C@@H](C)O", 1),
]

Source: ChEMBL document CHEMBL5316337
